# EXPERIMENT: TNF-a-driven NF-kB reporter inhibitors, primary screen, selectivity assay for NOD1/NOD2 signaling inhibitor project, cell-based, HEK293T NF-kB-Luc, luminescence (AID 1852)
# SETUP_CONDITIONS: TNF-a induced, 14 h, at 4 µM, stronger effect = higher value
The campaign covered roughly 2,500 compounds. About 1,100 (44%) were called active. So high a share suggests a set chosen from earlier hits. The list shows a part of the results.
PROPERTY_LABEL: inhibition (%)
Could you give me the number in %? Just the number is fine.

See these solved cases before continuing.
COMPOUND: O=C(Nc1ccncc1)c1c(F)cccc1F
inhibition (%): 59.3
//
COMPOUND: Cc1cc(/C=C2\SC(=S)N(C)C2=O)c(C)n1-c1cccc(O)c1
inhibition (%): -111
//
COMPOUND: COc1ccc(S(=O)(=O)NC(C)C(=O)Nc2cccc([N+](=O)[O-])c2)cc1 (stereo unspecified)
inhibition (%): 36.7
//
COMPOUND: CCc1ccc(CN(C)C(=O)CCc2nc3ccccc3n(-c3ccc(OC)cc3)c2=O)cc1
inhibition (%): 41.1

Ask: Name the recorded inhibition for "COc1ccc(C(=O)/C(C#N)=N/Nc2cccc([N+](=O)[O-])c2)cc1" .
Reply: 87.9

Ask: Give the measured inhibition of COc1ccc(N(C(=O)CCl)C(C(=O)NC2CCCCC2)c2cccnc2)cc1 (stereo unspecified) .
Reply: 87.1
